- test-method-notes: qHTS of pediatric cancer cell lines to identify multiple opportunities for drug repurposing: Primary screen for Rh41 cells (AID 1347108); note: nearly all actives have a fitted effect of over 70% in size
- test-context: Rh41 rhabdomyosarcoma viability, CellTiter-Glo luminescence, 48 h; series mostly up to 46 µM
Records with an inconclusive call do not appear. Activity calls are given as the source filed them. Calls come from the whole dose curve; as a rule, active = well fitted cell-killing curve with a large enough effect; inconclusive = small, poorly fitted or top-dose-only effect; inactive = no such curve, though single readings can be large or run the other way.
Log the outcome using a class from active, inactive

Field: outcome | Entry: CN[C@H]1[C@@H](O)[C@@H]2O[C@@H]3O[C@H](C)CC(=O)[C@]3(O)O[C@@H]2[C@@H](NC)[C@H]1O
active

Field: outcome | Entry: C=CC(=O)Nc1ccc2ncnc(Nc3ccc(OCc4cccc(F)c4)c(Cl)c3)c2c1
active

Field: outcome | Entry: CN(C)CCN1C(=O)c2cccc3cc(N)cc(c23)C1=O
active

Field: outcome | Entry: COc1ccnc2[nH]cc(C(=O)C(=O)N3CCN(C(=O)c4ccccc4)C[C@@H]3C)c12
inactive

Field: outcome | Entry: CC(=O)SCC(Cc1ccccc1)C(=O)NCC(=O)OCc1ccccc1 (centres undefined)
active

Field: outcome | Entry: Nc1ccn(C2CO[C@H](CO)O2)c(=O)n1 (some centres undefined)
inactive

Field: outcome | Entry: O=C(C[C@@H]1CC=CCCC(=O)O[C@H](c2ccccc2)CNC1=O)NCc1ccc(Cl)cc1
inactive

Field: outcome | Entry: Nc1ccn(C[C@@H](CO)OCP(=O)(O)O)c(=O)n1
inactive

Field: outcome | Entry: C=Cc1c(C)c2cc3nc(cc4[nH]c(cc5nc(cc1[nH]2)C(C)=C5CCC(=O)O)c(CCC(=O)OC)c4C)[C@@]1(C)C3=CC=C(C(=O)OC)[C@H]1C(=O)OC
active

* * *

- test-method-notes: qHTS Screen of the MIPE 4.0 Collection Against Ewings Sarcoma (TC71) (AID 1259253); note: nearly all actives have a fitted effect of over 40% in size; note: potency is the fitted concentration of half-maximal effect
- test-context: TC71 Ewing sarcoma viability, CellTiter-Glo, 48 h; series mostly up to 45.8 µM
Records with an inconclusive call do not appear. Active and inactive are the calls of the source. Calls come from the whole dose curve; as a rule, active = well fitted inhibition curve with a large enough effect; inconclusive = small, poorly fitted or top-dose-only effect; inactive = no such curve, though single readings can be large or run the other way.
endpoint-label: Potency

Example cases with answers are listed next.
# compound, Potency
records = [
    ("CCCCCCCN(CC)CCCC(O)c1ccc(NS(C)(=O)=O)cc1 (centres undefined)", "inactive"),
    ("O=C(Nc1ccc(Oc2ccnc3[nH]ccc23)c(F)c1)c1cccn(-c2ccc(F)cc2)c1=O", "inactive"),
    ("NS(=O)(=O)OC[C@@H]1C[C@@H](n2ccc3c(N[C@H]4CCc5ccccc54)ncnc32)C[C@H]1O", "264 nM (active)"),
    ("CC(C)N1[N]C(=C2C=c3cc(O)ccc3=N2)c2c(N)ncnc21", "372 nM (active)"),
    ("C=C1C[C@@]2(O)O[C@@]3(C[C@H]2C(C)C)[C@H](C)CC[C@H]13", "inactive"),
]

Item under review: CC(=O)N[C@@H]1[C@H](O[C@@H]2c3ccc(c(Cl)c3)Oc3cc4cc(c3O[C@H]3O[C@H](CO)[C@@H](O)[C@H](O)[C@H]3NC(=O)CCCCCCCC(C)C)Oc3ccc(cc3Cl)C[C@H]3NC(=O)[C@H](N)c5ccc(O)c(c5)Oc5cc(O)cc(c5)[C@H](NC3=O)C(=O)N[C@H]4C(=O)N[C@H]3C(=O)N[C@@H]2C(=O)N[C@@H](C(=O)O)c2cc(O)cc(O[C@H]4O[C@H](CO)[C@@H](O)[C@H](O)[C@H]4O)c2-c2cc3ccc2O)O[C@H](CO)[C@@H](O)[C@@H]1O . Reported Potency?
inactive

Item under review: CC(C)C[C@H](NC(=O)CNC(=O)c1cc(Cl)ccc1Cl)B1OC(=O)CC(CC(=O)O)(C(=O)O)O1 (some centres undefined) . Reported Potency?
235 nM (active)

Item under review: O=C(O)CCCCCC(=O)NN=C1CCCC1 . Reported Potency?
inactive

Item under review: CC[C@H]1OC(=O)[C@H](C)[C@@H](O[C@H]2C[C@@](C)(OC)[C@@H](O)[C@H](C)O2)[C@H](C)[C@@H](O[C@@H]2O[C@H](C)C[C@H](N(C)C)[C@@H]2O)[C@](C)(OC)C[C@@H](C)C(=O)[C@H](C)[C@@H](O)[C@]1(C)O . Reported Potency?
inactive

Item under review: CNC(=O)Nc1ccc(-c2nc(N3CC4CCC(C3)O4)c3cnn(C4CCC5(CC4)OCCO5)c3n2)cc1 . Reported Potency?
13.2 nM (active)

Item under review: O=C(C=CC#Cc1cccc(NS(=O)(=O)c2ccccc2)c1)NO . Reported Potency?
1320 nM (active)

Item under review: CCN(CC)Cc1ccc2cc(COC(=O)Nc3ccc(C(=O)NO)cc3)ccc2c1 . Reported Potency?
662 nM (active)

Item under review: COc1cccc2c1C(=O)c1c(O)c3c(c(O)c1C2=O)C[C@@](O)(C(C)=O)C[C@H]3O[C@H]1C[C@H](N)[C@H](O)[C@H](C)O1 . Reported Potency?
66.2 nM (active)

Item under review: C[C@H]1C[C@H]2[C@@H]3CCC4=CC(=O)C=C[C@]4(C)[C@@H]3C(=O)C[C@]2(C)[C@@]1(O)C(=O)CO . Reported Potency?
inactive

* * *

- test-method-notes: qHTS of pediatric cancer cell lines to identify multiple opportunities for drug repurposing: Primary screen for BT-37 cells (AID 1347094)
- test-context: BT-37 viability, CellTiter-Glo luminescence, 48 h; series mostly up to 57.3 µM
Records with an inconclusive call do not appear. The source made the active and inactive calls. Calls follow the shape of the dose curve; as a rule, active = well fitted cell-killing curve with a large enough effect; inconclusive = small, poorly fitted or top-dose-only effect; inactive = flat fitted curve, though single readings scatter.
Log the outcome using a class from active, inactive

Field: outcome | Entry: FC(F)c1nc2ccccc2n1-c1nc(N2CCOCC2)nc(N2CCOCC2)n1
active

Field: outcome | Entry: OC[C@H]1OC(O)C[C@@H](O)[C@H]1O (some centres not stated)
inactive

Field: outcome | Entry: COC(=O)C=CC(=O)OC
inactive

Field: outcome | Entry: C=C1C(=CC=C2CCC[C@]3(C)[C@@H]([C@H](C)CCCC(C)(C)O)CC[C@@H]23)C[C@@H](O)C[C@@H]1O
active

Field: outcome | Entry: c1ccc2c(Oc3nc(Nc4ccc(N5CCOCC5)cc4)c4ncn(C5CCCCC5)c4n3)cccc2c1
inactive

Field: outcome | Entry: CCc1c(O)cc(O)c(C(=O)c2ccc(OCCN3CCOCC3)c(OC)c2)c1CC(=O)N(CCOC)CCOC
active

Field: outcome | Entry: CC(=O)NC(CS)C(=O)O (configuration not stated)
inactive

Field: outcome | Entry: CC[C@H]1OC(=O)[C@H](C)[C@@H](O[C@H]2C[C@@](C)(OC)[C@@H](O)[C@H](C)O2)[C@H](C)[C@@H](O[C@@H]2O[C@@H](C)C[C@H](N(C)C)[C@@H]2O)[C@](C)(O)C[C@@H](C)C(=O)[C@H](C)[C@@H](O)[C@]1(C)O
inactive

Field: outcome | Entry: C=Cc1c(C)c2cc3nc(cc4[nH]c(cc5nc(cc1[nH]2)C(C)=C5CCC(=O)O)c(CCC(=O)OC)c4C)[C@@]1(C)C3=CC=C(C(=O)OC)[C@H]1C(=O)OC
active

Field: outcome | Entry: COc1cc(C(C)C)c(Oc2cnc(NC(CO)CO)nc2N)cc1I
inactive

Field: outcome | Entry: CC[C@@]1([C@@H]2O[C@@H]([C@H]3O[C@@](O)(CO)[C@H](C)C[C@H]3C)C[C@H]2C)CC[C@H]([C@]2(C)CC[C@]3(C[C@H](O)[C@@H](C)[C@@H]([C@@H](C)[C@@H](OC)[C@H](C)C(=O)O)O3)O2)O1
active

Field: outcome | Entry: CCCNS(=O)(=O)Nc1ncnc(OCCOc2ncc(Br)cn2)c1-c1ccc(Br)cc1
inactive

Field: outcome | Entry: C[C@]12C=CC(=O)N[C@@H]1CC[C@H]1[C@H]3CC[C@@H](C(=O)Nc4cc(C(F)(F)F)ccc4C(F)(F)F)[C@@]3(C)CC[C@@H]12
inactive

Field: outcome | Entry: O=c1[nH]c(=O)n([C@H]2C[C@@H](O)[C@@H](CO)O2)cc1C=CBr
inactive

Field: outcome | Entry: COc1cc2ncnc(Nc3cccc(Br)c3)c2cc1OC
active

Field: outcome | Entry: CCOc1cc2ncc(C#N)c(Nc3ccc(OCc4ccccn4)c(Cl)c3)c2cc1NC(=O)C=CCN(C)C
active

Field: outcome | Entry: COc1ccc(C=Cc2cc(OC)c(OC)c(OC)c2)cc1NC(=O)[C@H](N)CO
active

* * *

- test-method-notes: qHTS of pediatric cancer cell lines to identify multiple opportunities for drug repurposing: Primary screen for OHS-50 cells (AID 1347103); note: nearly all actives have a fitted effect of over 40% in size
- test-context: OHS-50 osteosarcoma viability, CellTiter-Glo luminescence, 48 h; series mostly up to 57.3 µM
- Description: Drug repurposing or repositioning has been offered as a strategy for drug development in oncology programs. […] [1] Shen, M et al. Quantitative high-throughput phenotypic screening of pediatric cancer cell lines identifies multiple opportunities for drug repurposing. […] Cells were assayed in growth media at a density of 500-1,000 cells/well. […] After a 15 min incubation at room temperature, samples were analyzed for luminescence intensity using a ViewLux High-throughput CCD imager equipped with clear filters.
Records with an inconclusive call do not appear. Active and inactive are the calls of the source. The call rests on the fitted dose curve; in most records, active means well fitted cell-killing curve with a large enough effect; inconclusive means small, poorly fitted or top-dose-only effect; inactive means no such curve, though single readings can be large or run the other way.
Log the outcome using a class from T = active, F = inactive

Field: outcome | Entry: N[C@H]1CN(c2c(F)cc3c(=O)c(C(=O)O)cn(C4C[C@@H]4F)c3c2Cl)CC12CC2 (stereo partly drawn)
F

Field: outcome | Entry: Nc1nc(=O)n([C@H]2CSC(CO)O2)cc1F (stereo partly drawn)
F

Field: outcome | Entry: COc1cc2ncnc(Nc3cccc(Br)c3)c2cc1OC
T

Field: outcome | Entry: COC1=C(OC)C(=O)C(CC=C(C)CCC=C(C)CCC=C(C)CCC=C(C)CCC=C(C)CCC=C(C)CCC=C(C)CCC=C(C)CCC=C(C)CCC=C(C)C)=C(C)C1=O
F

Field: outcome | Entry: C[C@@H]1CC[C@@]2(OC1)OC1CC3C4CC=C5CC(O)CCC5(C)C4CCC3(C)C1[C@@H]2C (stereo partly drawn)
F

Field: outcome | Entry: CCCCC(=O)O[C@]1(C(=O)CO)[C@@H](C)C[C@H]2[C@@H]3CCC4=CC(=O)C=C[C@]4(C)[C@@]3(F)[C@@H](O)C[C@@]21C
F

Field: outcome | Entry: C[C@H]1[C@@H](OC(=O)CCC(=O)O)O[C@@H]2O[C@@]3(C)CC[C@@H]4[C@H](C)CC[C@@H]1[C@@]24OO3
T

Field: outcome | Entry: Nc1cccc2c1C(=O)N(C1CCC(=O)NC1=O)C2=O (stereo not drawn)
F
